Ref: patent US11180770B2

Catalogue of Turnover readings, one per entry.
tested on: HPPD polypeptides; assay: coupled HPPD activity assay: turnover and residual turnover in crude extracts; format: biochemical, Pseudomonas fluorescens; details: absence of Cmpd. 1; high substrate concentration; kinetic changes in absorbance (OD) at 320 nm, 30 min
Quick one: just the number, no unit, thanks!

Example molecules with recorded Turnover:
34 (protein, mutant HPPD polypeptide) MADLYENPMGLMGFEFIEFASPTPGTLEPIFEIMGFTKVATHRSKNVHLYRQGEINLILNNEPNSIASYFAAEHGPSVCGMAFRVKDSQKAYNRALELGAQPIHIDTGPMELNLPAIKGIGGAPLYLIDRFGEGSSIYDIDFVYLEGVERNPVGAGLKVIDHLTHNVYRGRMVYWANFYEKLFNFREARYFDIKGEYTGLTSKAMSAPDGMIRIPLNEESSKGAGQIEEFLMQFNGEGIQHVAFLTDDLVKTWDALKKIGMRFMTAPGDNYYEMLEGRLPDHGEPVDQLQARGILLDGSSVEGDKRLLLQIFSETLMGPVFFEFIQRKGDDGFGPHSFKVLFESVERDQVRRGVLTAD | 0.243
5 (protein, mutant HPPD polypeptide) MADLYENPMGLMGFEFIEFASPTPGTLEPIFEIMGFTKVATHRSKNVHLYRQGEINLILNNEPNSIASYFAAEHGPSVCGMAFRVKDSQKAYNRALELGAQPIHIDTGPMELNLPAIKGIGGAPLYLIDRFGEGSSIYDIDFVYLEGVERNPVGAGLKVIDHLTHNVYRGRMVYWANFYEKLFNFREARYFDIKGEYTGLTSKAMSAPDGMIRIPLNEESSKGAGQIEEFLMQFNGEGIQHVAFLTDDLVKTWDALKKIGMRFMTAPPDTYYEMLEGRLPDHGEPVDQLQARGILLDGSSVEGDKRLLLQIFSETLMGPVFFEFIQRKGDDGFGPDSFKVLFESIERDQVRRGVLTAD | 0.157
37 (protein, mutant HPPD polypeptide) MADLYENPMGLMGFEFIEFASPTPGTLEPIFEIMGFTKVATHRSKNVHLYRQGEINLILNNEPNSIASYFAAEHGPSVCGMAFRVKDSQKAYNRALELGAQPIHIDTGPMELNLPAIKGIGGAPLYLIDRFGEGSSIYDIDFVYLEGVERNPVGAGLKVIDHLTHNVYRGRMVYWANFYEKLFNFREARYFDIKGEYTGLTSKAMSAPDGMIRIPLNEESSKGAGQIEEFLMQFNGEGIQHVAFLTDDLVKTWDALKKIGMRFMTAPSDNYYEMLEGRLPDHGEPVDQLQARGILLDGSSVEGDKRLLLQIFSETLMGPVFFEFIQRKGDDGFGPHSFKVLFESVERDQVRRGVLTAD | 0.096
7 (protein, mutant HPPD polypeptide) MADLYENPMGLMGFEFIEFASPTPGTLEPIFEIMGFTKVATHRSKNVHLYRQGEINLILNNEPNSIASYFAAEHGPSVCGMAFRVKDSQKAYNRALELGAQPIHIDTGPMELNLPAIKGIGGAPLYLIDRFGEGSSIYDIDFVYLEGVERNPVGAGLKVIDHLTHNVYRGRMVYWANFYEKLFNFREARYFDIKGEYTGLTSKAMSAPDGMIRIPLNEESSKGAGQIEEFLMQFNGEGIQHVAFLTDDLVKTWDALKKIGMRFMTAPGDNYYEMLEGRLPDHGEPVDQLQARGILLDGSSVEGDKRLLLQIFSETLMGPVFFEFIQRKGDDGFGPDSFKVLFESIERDQVRRGVLTAD | 0.149

Challenge: State the recorded Turnover for this entry: 46 (protein, mutant HPPD polypeptide) MADLYENPMGLMGFEFIEFASPTPGTLEPIFEIMGFTKVATHRSKNVHLYRQGEINLILNNEPNSIASYFAAEHGPSVCGMAFRVKDSQKAYNRALELGAQPIHIDTGPMELNLPAIKGIGGAPLYLIDRFGEGSSIYDIDFVYLEGVERNPVGAGLKVIDHLTHNVYRGRMVYWANFYEKLFNFREARYFDIKGEYTGLTSKAMSAPDGMIRIPLNEESSKGAGQIEEFLMQFNGEGIQHVAFLTDDLVKTWDALKKIGMRFMTAPGDNYYEMLEGRLPDHGEPVDQLQARGILLDGSSVEGDKRLLLQIFSETLMGPVFFEFIQRKGDDGFGPHSFKVLFEQVERDQVRRGVLTAD
Response given: 0.179

Challenge: What does the record list as Turnover for 29 (protein, mutant HPPD polypeptide) MADLYENPMGLMGFEFIEFASPTPGTLEPIFEIMGFTKVATHRSKNVHLYRQGEINLILNNEPNSIASYFAAEHGPSVCGMAFRVKDSQKAYNRALELGAQPIHIDTGPMELNLPAIKGIGGAPLYLIDRFGEGSSIYDIDFVYLEGVERNPVGAGLKVIDHLTHNVYRGRMVYWANFYEKLFNFREARYFDIKGEYTGLTSKAMSAPDGMIRIPLNEESSKGAGQIEEFLMQFNGEGIQHVAFLTDDLVKTWDALKKIGMRFMTAPPDNYYEMLEGRLPDHGEPVDQLQARGILLDGSSVEGDKRLLLQIFSETLMGPVFFEFIQRKGDDGFGPHSFKVLFESIERDQVRRGVLTAD ?
Response given: 0.289

Challenge: Please give the measured Turnover for this molecule: 52 (protein, mutant HPPD polypeptide) MADLYENPMGLMGFEFIEFASPTPGTLEPIFEIMGFTKVATHRSKNVHLYRQGEINLILNNEPNSIASYFAAEHGPSVCGMAFRVKDSQKAYNRALELGAQPIHIDTGPMELNLPAIKGIGGAPLYLIDRFGEGSSIYDIDFVYLEGVERNPVGAGLKVIDHLTHNVYRGRMVYWANFYEKLFNFREARYFDIKGEYTGLTSKAMSAPDGMIRIPLNEESSKGAGQIEEFLMQFNGEGIQHVAFLTDDLVKTWDALKKIGMRFMTAPADNYYEMLEGRLPDHGEPVDQLQARGILLDGSSVEGDKRLLLQIFSETLMGPVFFEFIQRKGDDGFGPDSFKVLFEQIERDQVRRGVLTAD
Response given: 0.189
